Readings of Population Healthy Nuclei (%) for the listed molecules
System: HEK-293T
assayRemarks: Multiplex assay against HEK293T
Assay type: toxicity, cell-based
measurementConditions: human, 48 h, 10 µM, compound concentration 10 uM, replicate 1
All answers are understood in %, so give the number only.

[Q] Supply recorded Population Healthy Nuclei (%) for CCCSc1nc(N[C@@H]2C[C@H]2c2ccc(F)c(F)c2)c2nnn([C@@H]3C[C@H](OCCO)[C@@H](O)[C@H]3O)c2n1 here.
[A] 3

[Q] Please supply the value of reported Population Healthy Nuclei (%) for the item COc1cc2ncn(-c3cc(OCc4ccccc4C(F)(F)F)c(C(N)=O)s3)c2cc1OC [GW843682X]
[A] 46

[Q] Given the molecule COc1cc(Nc2nccc(-c3cnn4nc(OC)ccc34)n2)cc(C(F)(F)F)c1 , write its reported Population Healthy Nuclei (%).
[A] 24

---
[Q] Tell me its Population Healthy Nuclei (%) given Cc1ccc(C)c(Oc2ccncc2C(=O)N2CCN(C3CC3)c3ccccc32)c1 as the entry.
[A] 40

[Q] Specify reported Population Healthy Nuclei (%) for the molecule shown: CC(C)NC(=O)N1CC[C@H](NC2=Nc3cc(F)ccc3N(CC(F)F)c3ccc(Cl)cc32)C1
[A] 39

[Q] Provide measured Population Healthy Nuclei (%) value, entry: Cc1cccc(CN2CCN(C(c3ccccc3)c3ccc(Cl)cc3)CC2)c1.Cl.Cl (stereo not drawn)
[A] 55

[Q] Tell us which Population Healthy Nuclei (%) value is on record for C#Cc1cccc(Nc2ncnc3cc(OCCOC)c(OCCOC)cc23)c1
[A] 22

[Q] // Input: COc1ccccc1CN[C@H]1C2CCN(CC2)[C@H]1C(c1ccccc1)c1ccccc1 . Output its Population Healthy Nuclei (%) only.
[A] 55

[Q] Tell me Population Healthy Nuclei (%) reported for Cl.O=C(O)c1cc(-c2ccc(C3CCNCC3)cc2)c2ccc(-c3ccc(C(F)(F)F)cc3)cc2c1
[A] 7

[Q] For the molecule CN1CCN(Cc2ccc(Nc3ncc(Cl)c(Nc4ccccc4S(=O)(=O)N(C)C)n3)cc2)CC1 , give its reported Population Healthy Nuclei (%).
[A] 24

[Q] Please give measured Population Healthy Nuclei (%) of the following entry: Cc1ccc2c(c1)c1c(n2CCc2ccc(C)nc2)CCN(C)C1 [LATREPIRDINE]
[A] 21

[Q] Provide only the value of recorded Population Healthy Nuclei (%) for Cc1ccccc1C(c1ccccc1C)N1C2CCC1CC(O)(c1ccccc1)C2 (stereo not drawn)
[A] 45

[Q] Give reported Population Healthy Nuclei (%) value for CC1=C(C(=O)Nc2cc3cn[nH]c3cc2F)C(c2ccc(C(F)(F)F)cc2)CC(=O)N1 (stereo not drawn)
[A] 49

[Q] Answer with the recorded Population Healthy Nuclei (%) for the molecule listed here: CC(C)c1noc(N2CCC(COc3ccc(-c4ccc(S(C)(=O)=O)cc4)nc3)CC2)n1
[A] 10

====

System: U2OS
assayRemarks: Multiplex assay against U2OS
Type: toxicity, cell-based
measurementConditions: human, 12 h, 1 µM, compound concentration 1 uM, replicate 2
Reported Population Normal (%) values follow for various compounds
Enter your answer as a number in %; do not include the unit.

Use the examples below as a reference point.
[Q] Provide Population Normal (%), recorded with U2OS, of CNC(=O)Nc1ccc(-c2nc(N3CC4CCC(C3)O4)c3cnn(C4CCC5(CC4)OCCO5)c3n2)cc1
[A] 89

[Q] Check U2OS data and give Population Normal (%) for CC(C)(C)NC[C@H](O)COc1nsnc1N1CCOCC1 [TIMOLOL] .
[A] 92

[Q] Give reported Population Normal (%) for CC(C)c1noc(N2CCC(COc3ccc(-c4ccc(S(C)(=O)=O)cc4)nc3)CC2)n1 [GSK-1292263] (U2OS)
[A] 97

[Q] GET Population Normal (%) | system: U2OS | item: Cc1c[nH]c2nccc(Oc3c(F)cc(Nc4cc(Cl)nc(N)n4)cc3F)c12 [BAY-549]
[A] 94

Continuing:
[Q] Give measured Population Normal (%) for COc1cc(Nc2nccc(-c3cnn4nc(OC)ccc34)n2)cc(C(F)(F)F)c1 (U2OS).
[A] 96

====

Tested on: U2OS
assayRemarks: Multiplex assay against U2OS
Type: toxicity, cell-based
measurementConditions: human, 48 h, 10 µM, compound concentration 10 uM, replicate 1
// label = 1 if Population Apoptotic (%) is not less than 70%, otherwise -1

[Q] Assess whether reported Population Apoptotic (%) for Cc1c[nH]c2nccc(Oc3c(F)cc(Nc4cc(Cl)nc(N)n4)cc3F)c12 sits at 70% or higher.
[A] -1

[Q] Would you say O=C(c1cc2c(cc1F)OC(c1ccc(F)cc1)(c1ccc(Cl)cc1Cl)O2)N1CCOCC1 (centres undefined) shows Population Apoptotic (%) at minimum 70%?
[A] -1

[Q] Kindly determine if Population Apoptotic (%) recorded for Cc1ccc2c(c1)c1c(n2CCc2ccc(C)nc2)CCN(C)C1 [LATREPIRDINE] is above or exactly 70%.
[A] -1

[Q] Record C[C@]12CC[C@@H]3c4ccc(O)cc4CC[C@H]3[C@@H]1CC[C@@H]2O ; criterion: Population Apoptotic (%) no lower than 70%. Met?
[A] -1

[Q] hey, is Population Apoptotic (%) for this one >= 70%? O=c1cc(N2CCOCC2)oc2c(-c3cccc4c3sc3ccccc34)cccc12
[A] 1

[Q] Could you tell me if the measured Population Apoptotic (%) of COc1ccccc1CN[C@H]1C2CCN(CC2)[C@H]1C(c1ccccc1)c1ccccc1 reaches 70% or more?
[A] 1

[Q] Is reported Population Apoptotic (%) greater than or equal to 70% here: CC(C)NC(=O)N1CC[C@H](NC2=Nc3cc(F)ccc3N(CC(F)F)c3ccc(Cl)cc32)C1
[A] 1

[Q] Dear colleague, could you confirm whether CCCSc1nc(N[C@@H]2C[C@H]2c2ccc(F)c(F)c2)c2nnn([C@@H]3C[C@H](OCCO)[C@@H](O)[C@H]3O)c2n1 has Population Apoptotic (%) at or above 70%?
[A] 1

[Q] Item COc1cc2ncn(-c3cc(OCc4ccccc4C(F)(F)F)c(C(N)=O)s3)c2cc1OC [GW843682X] with Population Apoptotic (%) of 70% or above?
[A] 1

====

System: U2OS
assayRemarks: Multiplex assay against U2OS
Format: toxicity, cell-based
measurementConditions: human, 24 h, 10 µM, compound concentration 10 uM, replicate 2
assayEndpoint: Population Apoptotic (%)
Just the number please, in %, no unit attached.

For orientation, consider the following solved cases.
[Q] Identify the reported Population Apoptotic (%) for the following entry. CC(C)CC(=O)Nc1[nH]nc2c1CN(C(=O)C1CCN(C)CC1)C2(C)C
[A] 55

[Q] Write down Population Apoptotic (%) measured for item CNC(=O)Nc1ccc2c(c1)[C@@]1(CC2)OC(=O)N(CC(=O)N(Cc2ccc(F)cc2)[C@@H](C)C(F)(F)F)C1=O
[A] 40

Next:
[Q] For the molecule C[C@]12CC[C@@H]3c4ccc(O)cc4CC[C@H]3[C@@H]1CC[C@@H]2O , report Population Apoptotic (%).
[A] 30

[Q] Tell me its Population Apoptotic (%) given CCc1nn(CCCN2CCN(c3cccc(Cl)c3)CC2)c(=O)n1CCOc1ccccc1.Cl [NEFAZODONE HYDROCHLORIDE] as the entry.
[A] 80

[Q] Identify measured Population Apoptotic (%) associated with Cc1nc(N2CC[C@H](O)C2)ncc1-c1cc(C(F)(F)F)cc2[nH]ncc12
[A] 21

[Q] Please give the documented Population Apoptotic (%) of COC(=O)C1=C(C)NC(C)=C(C(=O)OCCCN2CCC(c3ccccc3)(c3ccccc3)CC2)[C@H]1c1cccc([N+](=O)[O-])c1
[A] 100

[Q] Tell us which Population Apoptotic (%) value is on record for COc1cc(Nc2nccc(-c3cnn4nc(OC)ccc34)n2)cc(C(F)(F)F)c1
[A] 50

[Q] Report measured Population Apoptotic (%); entry is O=C(c1cc2c(cc1F)OC(c1ccc(F)cc1)(c1ccc(Cl)cc1Cl)O2)N1CCOCC1 (centres undefined)
[A] 66

[Q] Determine its reported Population Apoptotic (%): Cc1ccc(C)c(Oc2ccncc2C(=O)N2CCN(C3CC3)c3ccccc32)c1
[A] 53

[Q] For the molecule Cc1cccc(CN2CCN(C(c3ccccc3)c3ccc(Cl)cc3)CC2)c1.Cl.Cl (centres undefined) , give its reported Population Apoptotic (%).
[A] 11

[Q] Given the molecule Cl.O=C(O)c1cc(-c2ccc(C3CCNCC3)cc2)c2ccc(-c3ccc(C(F)(F)F)cc3)cc2c1 , write its reported Population Apoptotic (%).
[A] 61

[Q] Report Population Apoptotic (%) for CCCSc1nc(N[C@@H]2C[C@H]2c2ccc(F)c(F)c2)c2nnn([C@@H]3C[C@H](OCCO)[C@@H](O)[C@H]3O)c2n1
[A] 83

[Q] Note down Population Apoptotic (%) recorded for COc1ccccc1CN[C@H]1C2CCN(CC2)[C@H]1C(c1ccccc1)c1ccccc1
[A] 40

[Q] Please give the documented Population Apoptotic (%) of CC1=C(C(=O)Nc2cc3cn[nH]c3cc2F)C(c2ccc(C(F)(F)F)cc2)CC(=O)N1 (centres undefined)
[A] 75

The origin of these recorded values is ChEMBL document CHEMBL4689842.
